- tested_on: TRAF6/Uev1A/Ubc13 (Homo sapiens)
- Sequence (Q9Y4K3 whole entry): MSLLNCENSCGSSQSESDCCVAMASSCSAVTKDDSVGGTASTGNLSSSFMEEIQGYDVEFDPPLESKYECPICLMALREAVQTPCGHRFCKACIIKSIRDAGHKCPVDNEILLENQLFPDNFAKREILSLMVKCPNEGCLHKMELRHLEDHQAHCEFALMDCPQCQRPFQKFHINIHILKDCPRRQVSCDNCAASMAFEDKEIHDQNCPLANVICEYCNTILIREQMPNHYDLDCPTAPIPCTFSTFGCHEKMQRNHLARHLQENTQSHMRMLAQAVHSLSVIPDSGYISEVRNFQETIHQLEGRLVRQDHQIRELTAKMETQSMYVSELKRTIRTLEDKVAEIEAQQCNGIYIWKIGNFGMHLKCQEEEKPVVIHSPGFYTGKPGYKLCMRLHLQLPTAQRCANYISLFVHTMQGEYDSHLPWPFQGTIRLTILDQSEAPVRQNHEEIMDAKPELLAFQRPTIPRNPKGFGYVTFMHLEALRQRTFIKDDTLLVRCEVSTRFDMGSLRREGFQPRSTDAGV
- experimental_details: TRAF6/Uev1A/Ubc13 plate-based ubiquitin ligase assay
pIC50: −log10 of the molar value.
# pIC50 values compiled below
observation_type: pIC50

• COc1cccc(NS(=O)(=O)c2ccc(Sc3cccc4ccccc34)c3nonc23)c1OC [compound 413] = 4.70 to 6.00
• Cc1cccc(N2CCN(c3ccc([N+](=O)[O-])c4nonc34)CC2)n1 [compound 162] = ≤ 4.70
• FC(F)(F)c1cccc(-c2cc(-c3cccc(C(F)(F)F)c3)c3nonc3c2)c1 [compound 418] = ≤ 4.70
• CC(C)(C)OC(=O)N1CCN(c2ccc([N+](=O)[O-])c3nonc23)CC1 [compound 72] = ≤ 4.70
• O=S(=O)(c1c(Cl)ccc2nonc12)N1CCN(c2cnccn2)CC1 [compound 200] = ≤ 4.70
• O=S(=O)(Nc1ncccc1OCc1ccccc1)c1ccc(N2CCOCC2)c2nonc12 [compound 382] = ≤ 4.70
• CN1CCN(c2ccc([N+](=O)[O-])c3nonc23)CC1 [compound 110] = ≤ 4.70
• Nc1cccc2c(NS(=O)(=O)c3ccc(Sc4cccc5cccnc45)c4nonc34)cccc12 [compound 390] = 4.70 to 6.00
• FC(F)(F)c1cc(-c2ccc3c(c2)OCO3)c2nonc2c1 [compound 475] = ≤ 4.70
